Let's go through some Ki measurements on Cannabinoid receptor 1 (Homo sapiens, UniProt P21554) together.
Sequence (P21554 whole entry): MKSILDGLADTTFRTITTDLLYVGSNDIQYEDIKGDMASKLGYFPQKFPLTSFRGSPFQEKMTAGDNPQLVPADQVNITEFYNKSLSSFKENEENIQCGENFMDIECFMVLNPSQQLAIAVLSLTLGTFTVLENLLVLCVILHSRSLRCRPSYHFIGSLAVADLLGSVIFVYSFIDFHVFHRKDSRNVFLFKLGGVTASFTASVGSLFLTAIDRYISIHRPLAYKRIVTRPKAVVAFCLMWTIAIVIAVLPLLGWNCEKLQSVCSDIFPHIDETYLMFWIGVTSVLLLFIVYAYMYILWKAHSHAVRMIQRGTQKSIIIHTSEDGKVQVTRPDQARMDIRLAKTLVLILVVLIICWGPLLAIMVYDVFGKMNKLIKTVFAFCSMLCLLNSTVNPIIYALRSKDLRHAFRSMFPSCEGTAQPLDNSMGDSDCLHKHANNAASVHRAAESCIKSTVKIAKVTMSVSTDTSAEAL

Below: 2 compounds and their reported Ki.
structure-notation: Cc1c(C(=O)Nc2ccc(Cl)cc2)nn(-c2ccc(Cl)c(Cl)c2)c1-n1c(C)ccc1C
Ki: > 2820 nM
--
structure-notation: Cc1c(C(=O)NCCc2ccc(Cl)cc2Cl)nn(-c2ccc(Cl)cc2Cl)c1-n1cccc1
Ki: 218 nM

# input for lookup
[in] What measured Ki is associated with "Cc1c(C(=O)NC2CCCCCC2)nn(-c2ccc(Cl)c(Cl)c2)c1-n1cccc1" on Cannabinoid receptor 1 (Homo sapiens, UniProt P21554)?
[out] 5.6 nM
